Origin of values: paper PMC3813752

biological target: UniProtKB Q14330; assay: cell-based; details: GPR18 IC50, β-arrestin recruitment, antagonist mode vs. Δ9-THC (10 µM)
Sequence (Q14330 whole entry): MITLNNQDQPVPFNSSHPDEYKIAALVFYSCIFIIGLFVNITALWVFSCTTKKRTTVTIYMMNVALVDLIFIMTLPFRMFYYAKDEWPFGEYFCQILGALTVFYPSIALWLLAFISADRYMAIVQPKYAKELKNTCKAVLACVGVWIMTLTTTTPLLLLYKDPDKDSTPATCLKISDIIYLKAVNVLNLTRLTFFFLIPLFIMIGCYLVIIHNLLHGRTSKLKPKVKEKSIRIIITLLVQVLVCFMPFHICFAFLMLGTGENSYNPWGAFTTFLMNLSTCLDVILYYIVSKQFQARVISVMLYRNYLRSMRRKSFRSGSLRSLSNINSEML
Assign IC50 to each entry below.

Here are 3 compounds together with their reported answers.
{"compound": "CCCc1ccc(O)c(-c2cc(C(C)(C)C)ccc2O)c1 [Compound 59]", "reading": "~10 µM"}
{"compound": "CCCCc1ccc(O)c(-c2cc(CC)ccc2O)c1 [Compound 55]", "reading": "~10 µM"}
{"compound": "CCCCc1ccc(O)c(-c2cc(C)ccc2O)c1 [Compound 51]", "reading": "~10 µM"}

Shifting focus to the compound that follows.
Input line: Form field: reported IC50 of CCCc1ccc(O)c(-c2cc(CCC)ccc2OC)c1 [Compound 12a, methoxytetrahydromagnolol]
Output line: ~10 µM
